Data origin: ChEMBL document CHEMBL2413072

Test system: CAKI-1
Assay: Growth inhibition of human CAKI-1 cells assessed as cell growth at 10 uM by sulforhodamine B assay
Format: functional
Settings: read-out: Activity
In plain terms, low growth at 10 µM, meaning strictly below 50%, gives MET, and everything else gives NOT MET.

Answered examples (4):
C/C=C(/C)C(=O)O[C@@H]1CC(C)(C)C[C@H]2C3=CC[C@@H]4[C@@]5(C)CC[C@H](O)C(C)(C)[C@@H]5CC[C@@]4(C)[C@]3(C)CC[C@@]12C(=O)O [Reduced Lantadene A] :: MET
CC(C)=CC(=O)O[C@@H]1CC(C)(C)C[C@H]2C3=CC[C@@H]4[C@@]5(C)CCC(=O)C(C)(C)[C@@H]5CC[C@@]4(C)[C@]3(C)CC[C@@]12C(=O)O :: MET
CC(C)=CC(=O)O[C@@H]1CC(C)(C)C[C@H]2C3=CC[C@@H]4[C@@]5(C)CC[C@H](O)C(C)(C)[C@@H]5CC[C@@]4(C)[C@]3(C)CC[C@@]12C(=O)O [Reduced Lantadene B] :: MET
CC1(C)C[C@@H](O)[C@]2(C(=O)O)CC[C@]3(C)C(=CC[C@@H]4[C@@]5(C)CC[C@H](O)C(C)(C)[C@@H]5CC[C@]43C)[C@@H]2C1 :: NOT MET

-- ask Record "CC1(C)C[C@@H](O)[C@]2(C(=O)O)CC[C@]3(C)C(=CC[C@@H]4[C@@]5(C)CCC(=O)C(C)(C)[C@@H]5CC[C@]43C)[C@@H]2C1" : is its growth at 10 µM strictly below 50%?
-- reply NOT MET

====

In this section, each of the compounds is paired with its reported TGI.
System: HCT-15
Assay: Growth inhibition of human HCT15 cells by sulforhodamine B assay
Format: functional
Conditions: read-out: TGI
The figure you give is taken to be in µM; do not add the unit.

Please review the entries below; each comes with its answer.
C/C=C(/C)C(=O)O[C@@H]1CC(C)(C)C[C@H]2C3=CC[C@@H]4[C@@]5(C)CC[C@H](O)C(C)(C)[C@@H]5CC[C@@]4(C)[C@]3(C)CC[C@@]12C(=O)O [Reduced Lantadene A] :: 11.5
CC1(C)C[C@@H](O)[C@]2(C(=O)O)CC[C@]3(C)C(=CC[C@@H]4[C@@]5(C)C/C(=C\C=C\c6ccccc6)C(=O)C(C)(C)[C@@H]5CC[C@]43C)[C@@H]2C1 :: 11.9
CC(C)=CC(=O)O[C@@H]1CC(C)(C)C[C@H]2C3=CC[C@@H]4[C@@]5(C)CCC(=O)C(C)(C)[C@@H]5CC[C@@]4(C)[C@]3(C)CC[C@@]12C(=O)O :: 15.6

Consider the record given below.
-- ask I would be grateful if you could share the reported TGI for CC(C)=CC(=O)O[C@@H]1CC(C)(C)C[C@H]2C3=CC[C@@H]4[C@@]5(C)CC[C@H](O)C(C)(C)[C@@H]5CC[C@@]4(C)[C@]3(C)CC[C@@]12C(=O)O [Reduced Lantadene B] .
-- reply 19.2

====

Test system: NCI-H226
Assay: Growth inhibition of human NCI-H226 cells by sulforhodamine B assay
Assay type: functional
Settings: read-out: pLC50 (converted)
# Lookup of reported LC50 keyed by entry
# output: bare number, implied unit µM

-- ask Using the record for "C/C=C(/C)C(=O)O[C@@H]1CC(C)(C)C[C@H]2C3=CC[C@@H]4[C@@]5(C)CC[C@H](O)C(C)(C)[C@@H]5CC[C@@]4(C)[C@]3(C)CC[C@@]12C(=O)O" , report its LC50.
-- reply 8.51

-- ask Would you kindly share the measured LC50 for "CC(C)=CC(=O)O[C@@H]1CC(C)(C)C[C@H]2C3=CC[C@@H]4[C@@]5(C)CC[C@H](O)C(C)(C)[C@@H]5CC[C@@]4(C)[C@]3(C)CC[C@@]12C(=O)O" ?
-- reply 85.1

-- ask Any idea what its LC50 is? The molecule is "CC1(C)C[C@@H](O)[C@]2(C(=O)O)CC[C@]3(C)C(=CC[C@@H]4[C@@]5(C)C/C(=C\C=C\c6ccccc6)C(=O)C(C)(C)[C@@H]5CC[C@]43C)[C@@H]2C1"
-- reply 56.2

====

Entries and their inhibition of growth at 10 µM values follow.
System: HOP-62
Assay: Growth inhibition of human HOP62 cells assessed as growth inhibition at 10 uM by sulforhodamine B assay
Format: functional
Settings: read-out: GI
// note: answer is a bare numeric in %

CC1(C)C[C@@H](O)[C@]2(C(=O)O)CC[C@]3(C)C(=CC[C@@H]4[C@@]5(C)CCC(=O)C(C)(C)[C@@H]5CC[C@]43C)[C@@H]2C1 :: 11.3
C/C=C(/C)C(=O)O[C@@H]1CC(C)(C)C[C@H]2C3=CC[C@@H]4[C@@]5(C)CCC(=O)C(C)(C)[C@@H]5CC[C@@]4(C)[C@]3(C)CC[C@@]12C(=O)O :: 24.4

-- ask For "CC1(C)C[C@@H](O)[C@]2(C(=O)O)CC[C@]3(C)C(=CC[C@@H]4[C@@]5(C)C/C(=C\C=C\c6ccccc6)C(=O)C(C)(C)[C@@H]5CC[C@]43C)[C@@H]2C1" , what is its reported inhibition of growth at 10 µM?
-- reply 37.2

-- ask For the compound "CC(C)=CC(=O)O[C@@H]1CC(C)(C)C[C@H]2C3=CC[C@@H]4[C@@]5(C)CC[C@H](O)C(C)(C)[C@@H]5CC[C@@]4(C)[C@]3(C)CC[C@@]12C(=O)O" , what inhibition of growth at 10 µM is on record?
-- reply 46.3

-- ask What does the record list as inhibition of growth at 10 µM for "CC(C)=CC(=O)O[C@@H]1CC(C)(C)C[C@H]2C3=CC[C@@H]4[C@@]5(C)CCC(=O)C(C)(C)[C@@H]5CC[C@@]4(C)[C@]3(C)CC[C@@]12C(=O)O" ?
-- reply 39.8

-- ask Which inhibition of growth at 10 µM is reported for this compound? "C/C=C(/C)C(=O)O[C@@H]1CC(C)(C)C[C@H]2C3=CC[C@@H]4[C@@]5(C)CC[C@H](O)C(C)(C)[C@@H]5CC[C@@]4(C)[C@]3(C)CC[C@@]12C(=O)O"
-- reply 75.7

====

Tested on: OVCAR-5
Experiment: Growth inhibition of human OVCAR5 cells by sulforhodamine B assay
Type: functional
Conditions: read-out: pGI50 (converted)
Label key: 1 means GI50 under 7 µM; 0 means GI50 of 7 µM or more.

-- ask Would you kindly verify if GI50 of "CC(C)=CC(=O)O[C@@H]1CC(C)(C)C[C@H]2C3=CC[C@@H]4[C@@]5(C)CCC(=O)C(C)(C)[C@@H]5CC[C@@]4(C)[C@]3(C)CC[C@@]12C(=O)O" is strictly less than 7 µM?
-- reply 1

-- ask Does this molecule meet the criterion GI50 < 7 µM? "CC1(C)C[C@@H](O)[C@]2(C(=O)O)CC[C@]3(C)C(=CC[C@@H]4[C@@]5(C)C/C(=C\C=C\c6ccccc6)C(=O)C(C)(C)[C@@H]5CC[C@]43C)[C@@H]2C1"
-- reply 1

-- ask hey, is GI50 for "C/C=C(/C)C(=O)O[C@@H]1CC(C)(C)C[C@H]2C3=CC[C@@H]4[C@@]5(C)CC[C@H](O)C(C)(C)[C@@H]5CC[C@@]4(C)[C@]3(C)CC[C@@]12C(=O)O" lower than 7 µM or not?
-- reply 1

-- ask Hi there! Is GI50 for "CC(C)=CC(=O)O[C@@H]1CC(C)(C)C[C@H]2C3=CC[C@@H]4[C@@]5(C)CC[C@H](O)C(C)(C)[C@@H]5CC[C@@]4(C)[C@]3(C)CC[C@@]12C(=O)O" below 7 µM, do you know?
-- reply 0

-- ask Decide: GI50 of "C/C=C(/C)C(=O)O[C@@H]1CC(C)(C)C[C@H]2C3=CC[C@@H]4[C@@]5(C)CCC(=O)C(C)(C)[C@@H]5CC[C@@]4(C)[C@]3(C)CC[C@@]12C(=O)O" strictly below 7 µM?
-- reply 0

====

Test system: OVCAR-3
Test: Growth inhibition of human OVCAR3 cells by sulforhodamine B assay
Type: functional
Details: read-out: pGI50 (converted)
Measured GI50 accompanies every entry in the list below.

Study these solved cases before continuing.
C/C=C(/C)C(=O)O[C@@H]1CC(C)(C)C[C@H]2C3=CC[C@@H]4[C@@]5(C)CCC(=O)C(C)(C)[C@@H]5CC[C@@]4(C)[C@]3(C)CC[C@@]12C(=O)O :: 5.89 µM
CC(C)=CC(=O)O[C@@H]1CC(C)(C)C[C@H]2C3=CC[C@@H]4[C@@]5(C)CCC(=O)C(C)(C)[C@@H]5CC[C@@]4(C)[C@]3(C)CC[C@@]12C(=O)O :: 4.07 µM
C/C=C(/C)C(=O)O[C@@H]1CC(C)(C)C[C@H]2C3=CC[C@@H]4[C@@]5(C)CC[C@H](O)C(C)(C)[C@@H]5CC[C@@]4(C)[C@]3(C)CC[C@@]12C(=O)O :: 1.95 µM
CC1(C)C[C@@H](O)[C@]2(C(=O)O)CC[C@]3(C)C(=CC[C@@H]4[C@@]5(C)C/C(=C\C=C\c6ccccc6)C(=O)C(C)(C)[C@@H]5CC[C@]43C)[C@@H]2C1 :: 2.04 µM

Now consider a different compound.
-- ask Please state recorded GI50 (tested on OVCAR-3) of "CC(C)=CC(=O)O[C@@H]1CC(C)(C)C[C@H]2C3=CC[C@@H]4[C@@]5(C)CC[C@H](O)C(C)(C)[C@@H]5CC[C@@]4(C)[C@]3(C)CC[C@@]12C(=O)O"
-- reply 7.08 µM
